# Study target: Histone deacetylase 1 (Homo sapiens, UniProt Q13547)
# Sequence (Q13547 whole entry): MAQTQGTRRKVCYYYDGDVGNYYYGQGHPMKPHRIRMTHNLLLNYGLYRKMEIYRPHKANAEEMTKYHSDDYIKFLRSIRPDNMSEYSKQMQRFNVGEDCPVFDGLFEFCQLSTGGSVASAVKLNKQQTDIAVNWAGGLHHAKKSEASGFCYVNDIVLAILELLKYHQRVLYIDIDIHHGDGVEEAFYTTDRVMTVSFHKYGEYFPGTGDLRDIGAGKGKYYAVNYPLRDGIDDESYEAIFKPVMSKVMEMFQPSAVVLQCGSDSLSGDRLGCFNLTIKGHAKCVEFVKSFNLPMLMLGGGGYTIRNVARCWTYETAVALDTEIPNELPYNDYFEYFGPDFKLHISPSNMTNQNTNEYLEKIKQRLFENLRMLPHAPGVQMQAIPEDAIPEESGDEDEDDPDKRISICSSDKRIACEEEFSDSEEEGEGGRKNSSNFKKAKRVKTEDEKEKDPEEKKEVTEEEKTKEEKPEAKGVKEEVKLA
pIC50: −log10 of the molar value.
Quantity measured: pIC50

[I] O=C(NC(CCCCCSSCCCCC[C@H](NC(=O)OCc1ccccc1)C(=O)Nc1cccc2cccnc12)C(=O)Nc1cccc2cccnc12)OCc1ccccc1 (stereo partly drawn) [(Z-L-Am7(S-)-QA)2 (4)]
[II] O=C(N[C@@H](CCCCCSSCCO)C(=O)Nc1cccc2cccnc12)OCc1ccccc1
[III] COCCOCC(=O)SCCCCC[C@H](NC(=O)OCc1ccccc1)C(=O)Nc1cccc2cccnc12
Please give the order of these compounds when sorted by pIC50, largest value leading. # list labels per requested ordering II, I, III
(II: 8.31, I: 8.09, III: 7.72)

Values from BindingDB's records for doi:10.1016/j.bioorg.2015.02.009
